Sourced from PubChem BioAssay

- measured.on: L-lactate dehydrogenase (Plasmodium falciparum (isolate CDC / Honduras)) (UniProt Q27743)
- Sequence (Q27743 whole entry, looked up): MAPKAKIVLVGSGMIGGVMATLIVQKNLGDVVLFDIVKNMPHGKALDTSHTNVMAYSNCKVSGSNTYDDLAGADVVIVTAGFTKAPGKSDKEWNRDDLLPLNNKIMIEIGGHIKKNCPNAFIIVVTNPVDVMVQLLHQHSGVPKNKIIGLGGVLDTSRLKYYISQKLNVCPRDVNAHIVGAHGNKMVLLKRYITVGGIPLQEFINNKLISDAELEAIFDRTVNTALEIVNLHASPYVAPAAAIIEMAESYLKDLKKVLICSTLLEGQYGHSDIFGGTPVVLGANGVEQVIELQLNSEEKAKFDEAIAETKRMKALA
- experiment.description: PfLDH activity inhibition – cell lysate, 3D7 strain, counter-screen for P. falciparum growth inhibition project (AID 2304);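 also: 0% = vehicle and 100% = reference inhibitor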
- measurement.context: P. falciparum 3D7 crude extract, LDH APAD/NBT absorbance; at 2 µM; stronger effect = higher value
quantity: inhibition (%)

1. O=c1cc(NC[C@H]2CCC[C@@H]2NCc2cc(Br)cc(Br)c2)[nH]c2ccccc12 = 2
2. COc1cc(C(=O)NCCCN2CCN(c3cccc(Cl)c3)CC2)ccc1-c1cc2cc(Cl)c(Cl)cc2[nH]1 = 0
3. CC1(C)N=C(N)N=C(N)N1OCC1COc2ccccc2O1 (stereo unspecified) = -1
4. CCOc1cc(C)ccc1C1CCN(CCCCNC(=O)c2coc(-c3ccc(Cl)cc3)c2)CC1 = -3
5. N=C(N)c1ccc(NC(=O)Cc2nc3ccc(C(=N)N)cc3[nH]2)cc1 = 2
6. O=C(NCCCCN1CCC(c2ccc3c(c2OCc2ccccn2)CCCC3)CC1)c1ccc(NC(=O)c2ccc(Cl)cc2)cc1 = -3
7. CCCCNC(=O)c1cc(CNC2CCCCC2)ccc1-c1cccc(CNCc2ccc(-c3ccccc3)cc2)c1 = 0
8. CC(C)(C)c1ccc(OCC(=O)NC2CCN(c3ccnc4cc(Cl)ccc34)C2)cc1 (stereo unspecified) = -2
9. CC(C)NCc1ccc(-c2ccc(NS(=O)(=O)c3cccc4cccnc34)cc2)cc1 = -4
10. COc1cc2c(cc1NS(=O)(=O)c1ccc(OCc3ccc(Br)cc3)cc1)CCN(C1CCC1)CC2 = 2
11. COc1ccc(COc2cc(NCCCN)nc3ccccc23)cc1 = -4
